Cited source: patent US9156853B2

- Measured Target: AKT2 (Homo sapiens, UniProt P31751)
- Sequence (P31751 whole entry, canonical isoform): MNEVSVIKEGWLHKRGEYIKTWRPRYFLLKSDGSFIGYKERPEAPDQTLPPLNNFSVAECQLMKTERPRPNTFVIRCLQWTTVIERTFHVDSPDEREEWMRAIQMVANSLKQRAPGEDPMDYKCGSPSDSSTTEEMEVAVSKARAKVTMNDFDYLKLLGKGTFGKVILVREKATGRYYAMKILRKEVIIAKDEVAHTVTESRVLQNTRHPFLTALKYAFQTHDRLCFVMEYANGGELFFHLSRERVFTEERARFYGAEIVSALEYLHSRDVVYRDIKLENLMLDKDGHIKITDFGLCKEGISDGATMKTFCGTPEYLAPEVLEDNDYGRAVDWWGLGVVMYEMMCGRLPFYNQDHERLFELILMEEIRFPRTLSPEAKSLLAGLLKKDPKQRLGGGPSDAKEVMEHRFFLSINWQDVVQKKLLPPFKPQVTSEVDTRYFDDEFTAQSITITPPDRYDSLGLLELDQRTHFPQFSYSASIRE
- Assay Info: AKT Kinase Assay (IMAP fluorescent polarisation), AKT2 isoform
- Condition Details: activated AKT2, FAM Crosstide substrate
pIC50: −log10 of the molar value.
The following compounds are shown together with reported pIC50 values.

// solved cases for pIC50 follow
>>> print(df.to_string())
                                   compound                      measured_target      reported
0  C[C@]1(O)C[C@@](N)(c2ccc(-c3sc4ncn(CC(F)(F)F)c(=O)c4c3-c3ccccc3)cc2)C1  AKT2 (Homo sapiens, UniProt P31751)  7.00 to 7.70
1  N[C@]1(c2ccc(-c3sc4ncn(CC(F)(F)F)c(=O)c4c3-c3ccccc3)cc2)C[C@@H](O)C1  AKT2 (Homo sapiens, UniProt P31751)  7.00 to 7.70
2  C[C@]1(O)C[C@@](N)(c2ccc(-c3oc4ncn(CC(F)(F)F)c(=O)c4c3-c3ccncc3)cc2)C1  AKT2 (Homo sapiens, UniProt P31751)        ≥ 7.70
3  Cn1c(-c2ccc([C@]3(N)C[C@](C)(O)C3)cc2)c(-c2ccncc2)c2c(=O)n(CC(F)(F)F)cnc21  AKT2 (Homo sapiens, UniProt P31751)        < 7.00

IN: Find the recorded pIC50 belonging to N[C@]1(c2ccc(-c3sc4ncn(CC(F)(F)F)c(=O)c4c3-c3ccccc3)cc2)C[C@H](O)C1 and report it.
OUT: ≥ 7.70

IN: Find the recorded pIC50 belonging to Cn1c(-c2ccc([C@]3(N)C[C@](C)(O)C3)cc2)c(-c2ccccn2)c2c(=O)n(CC(F)(F)F)cnc21 and report it.
OUT: < 7.00

IN: Find the recorded pIC50 belonging to C[C@]1(O)C[C@@](N)(c2ccc(-c3oc4ncn(CC(F)(F)F)c(=O)c4c3-c3ccccc3)cc2)C1 and report it.
OUT: ≥ 7.70

IN: Find the recorded pIC50 belonging to Cn1c(-c2ccc(C3(N)CCC3)cc2)c(-c2ccccc2)c2c(=O)n(CC(F)(F)F)cnc21 [Compound L, reference compound] and report it.
OUT: 7.00 to 7.70

IN: Find the recorded pIC50 belonging to N[C@]1(c2ccc(-c3oc4ncn(CC(F)(F)F)c(=O)c4c3-c3ccccc3)cc2)C[C@H](O)C1 and report it.
OUT: ≥ 7.70

IN: Find the recorded pIC50 belonging to NC1(c2ccc(-c3oc4ncn(CC(F)(F)F)c(=O)c4c3-c3ccccc3)cc2)CCC1 [Compound A, reference compound] and report it.
OUT: 7.00 to 7.70

IN: Find the recorded pIC50 belonging to Cn1c(-c2ccc([C@]3(N)C[C@@H](O)C3)cc2)c(-c2ccccc2)c2c(=O)n(CC(F)(F)F)cnc21 and report it.
OUT: ≥ 7.70

IN: Find the recorded pIC50 belonging to NC1(c2ccc(-c3sc4ncn(CC(F)(F)F)c(=O)c4c3-c3ccccc3)cc2)CCC1 [Compound F, reference compound] and report it.
OUT: < 7.00

IN: Find the recorded pIC50 belonging to Cn1c(-c2ccc([C@]3(N)C[C@@](C)(O)C3)cc2)c(-c2ccccn2)c2c(=O)n(CC(F)(F)F)cnc21 and report it.
OUT: < 7.00

IN: Find the recorded pIC50 belonging to Cn1c(-c2ccc([C@]3(N)C[C@](C)(O)C3)cc2)c(-c2cccnc2)c2c(=O)n(CC(F)(F)F)cnc21 and report it.
OUT: < 7.00

IN: Find the recorded pIC50 belonging to C[C@]1(O)C[C@](N)(c2ccc(-c3sc4ncn(CC(F)(F)F)c(=O)c4c3-c3ccccn3)cc2)C1 and report it.
OUT: < 7.00

IN: Find the recorded pIC50 belonging to Cn1c(-c2ccc([C@]3(N)C[C@H](O)C3)cc2)c(-c2ccccc2)c2c(=O)n(CC(F)(F)F)cnc21 and report it.
OUT: 7.00 to 7.70
